Molecular target: fibroblast growth factor (FGF)-2 (human, UniProt P09038 143-288)
Sequence (P09038 143-288): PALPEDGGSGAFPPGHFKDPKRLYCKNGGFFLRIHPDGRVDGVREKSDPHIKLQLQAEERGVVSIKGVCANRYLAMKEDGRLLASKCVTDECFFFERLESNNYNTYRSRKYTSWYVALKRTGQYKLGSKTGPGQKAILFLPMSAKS
Test: ELISA
RECORDED ENDPOINT: binding result

{"BINDER": "RQRSRPGRWHKVSVRWEKNR (peptide, UniProt O15230 3417-3436, looked up) [laminin-derived peptide α5_(3417-3436)]", "RECORDED ENDPOINT": "binding result", "MEASURED RESULT": "binds"}
{"BINDER": "RLVFALGTDGKKLRIKSKEKCNDGK (peptide, UniProt Q16787 3043-3067, looked up) [laminin-derived peptide α3_(3043-3067)]", "RECORDED ENDPOINT": "binding result", "MEASURED RESULT": "binds"}
{"BINDER": "TLPDVGLELEVR (peptide, UniProt O15230 3539-3550, looked up) [laminin-derived peptide α5_(3539-3550)]", "RECORDED ENDPOINT": "binding result", "MEASURED RESULT": "binds"}
{"BINDER": "PPFLMLLKGSTRFNKTKTFR (peptide, UniProt Q16787 2932-2951, looked up) [laminin-derived peptide α3_(2932-2951)]", "RECORDED ENDPOINT": "binding result", "MEASURED RESULT": "binds"}

Origin of the recorded values: paper doi:10.1101/259481
